These entries and their values trace back to PubChem BioAssay (NCI).

- experiment.description: NCI Yeast Anticancer Drug Screen. Data for the rad50 strain (AID 155);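 note: 0% = growth of vehicle-only cultures of the same strain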
- details: S. cerevisiae rad50 strain growth inhibition; at 11.0 µM
The panel holds about 79,000 compounds, 15% with a hit somewhere; the sample as a whole holds those more often. Activity calls are given as the source filed them. Cut-off read from the data, not from the text of the source: active = growth inhibition above about 70%; inactive = the rest.
Could you please pick one outcome from this set? label 1 = active, label 0 = inactive

Incoming: // outcome(item) with item = "COc1cc2ccc(/C=C\[N+](=O)[O-])cc2cc1OC"
Outgoing: label 0

Incoming: Assay result, entry "COC(=O)C1=C(C)NC(C)=C(C(=O)OC)C1c1cccc(/[N+]([O-])=C/c2ccccc2)c1" — outcome?
Outgoing: label 0

Incoming: Hey, what did the test say about Nc1ccccc1CC(O)C(=O)O (configuration not stated) ?
Outgoing: label 0

Incoming: What outcome does the record of this test show for COc1cc(C2C3=C(COC3=O)Oc3cc4c(cc32)OCO4)ccc1O (configuration not stated) ?
Outgoing: label 0

Incoming: Hi, sorry to bother you, what did the test record for "Cc1nc(-[n+]2nc(-c3ccncc3)nn2-c2ccccc2)sc1C" ?
Outgoing: label 0

Incoming: So what was the verdict on "COCCOC(=O)CCn1cc(F)c(=O)[nH]c1=O" in this test?
Outgoing: label 0

Incoming: Test call for this compound, please: "N/C(=N\OC(=O)NC(Cl)=C(Cl)Cl)c1cc(C(F)(F)F)cc(C(F)(F)F)c1"
Outgoing: label 0

Incoming: State the result this test recorded for "Cn1c(=O)c2ccccc2c2ccccc21" .
Outgoing: label 0

Incoming: Hi team, can someone confirm the assay call for "S=C(N/N=C(/c1ccccc1)c1ccccn1)N1CCCCCC1" ?
Outgoing: label 0

Incoming: Record request — test call for CC1C(NNc2ccccc2)Oc2cc3c(cc2C1c1ccccc1O)OCO3 (configuration not stated)
Outgoing: label 1

Incoming: Give the logged outcome of this assay for the following compound: COc1ccc(C2c3cc4c(cc3OC(C)(O)C2C)OCO4)c(OC)c1 (configuration not stated)
Outgoing: label 0

Incoming: Tell me the recorded outcome of this test for "O=CC=C(c1ccccc1)c1ccccc1" .
Outgoing: label 0

====

- experiment.description: NCI Yeast Anticancer Drug Screen. Data for the mgt1 strain (AID 153)
- details: S. cerevisiae mgt1 mutant growth inhibition; at 3.7 µM; stronger effect = higher value
About 79,000 compounds went through this panel and 15% of them were active in at least one assay; those are over-represented in the sample as a whole.
assay.endpoint: growth inhibition (%)
Report only the number, with the unit % understood.

The recorded growth inhibition for entry "C/C(=N\NC(=S)SCc1ccccc1)c1ccccn1" equals 24

"COc1ccccc1/C=C1\Sc2scc(-c3cccc([N+](=O)[O-])c3)[n+]2C1=O" has a reported growth inhibition of 98

Entry "N#Cc1c(N)[nH]c2ccc(Sc3ccccc3)cc12" ; growth inhibition = -2

Recorded result, "Cc1ccc(S(=O)(=O)NCCSS(=O)(=O)c2ccc(C)cc2)cc1" , growth inhibition: -8

Reported growth inhibition for "Clc1cccc(C(Nc2nncs2)Nc2nncs2)c1Cl" was 0

According to the records, this molecule "Oc1cccc2c(Cl)ccnc12" displays growth inhibition of 99

Recorded result, "CCCCCCCCNC(=O)C1=C(C)NC(C)=C(C(=O)NCCCCCCCC)C1" , growth inhibition: 0

Reported growth inhibition ( "CCN(CC)CCC(=O)c1ccc(Oc2ccc(F)cc2)cc1" ) = 59

response.value for "COc1ccc(O)c(/C=N\Nc2ccccc2)c1" (field: growth inhibition) = -7

Item: "O=[N+]([O-])c1cccc([N+](=O)[O-])c1S(=O)(=O)c1ccccc1" | growth inhibition: 1

Value of growth inhibition reported for the molecule "O=C(NCCCCNCCCNC(=O)c1cc(-c2ccccc2)nc2ccccc12)c1cc(-c2ccccc2)nc2ccccc12" is 2

The reported value for OC(COc1cccc2ccccc12)CN1CCOCC1 (centres undefined) in terms of growth inhibition is 26

Value of measured growth inhibition for the entry "CC(C)C1=CC2=C[C@H](O)[C@H]3C(C)(C)CCC[C@]3(C)C2=C(O)C1=O" : -7

growth inhibition recorded for this molecule, "CCCc1cc(C(=O)OCC)cc(CCC)c1O" , is -4

====

Give growth inhibition for every item shown.
- experiment.description: NCI Yeast Anticancer Drug Screen. Data for the cln2 rad14 strain (AID 165);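 note: 0% = growth equal to vehicle treated cultures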
- details: S. cerevisiae cln2 rad14 strain, at 50.0 µM (retest, dose inferred, filed as 5.0), stronger effect = higher value
- Method: Growth inhibition of yeast strains with defined genetic alterations is measured as a screen for potential anti-cancer activity. Selected strains with alterations in DNA damage repair or cell cycle control were exposed to compounds and growth inhibition was measured relative to vehicle treated controls. The strain used in this assay is cln2 rad14
About 79,000 compounds went through this panel and 15% of them were active in at least one assay; those are over-represented in the sample as a whole.
Reply numerically in %, unit not repeated.

Kindly note the recorded growth inhibition for "CCC(=O)Oc1c(Cl)cc(Cl)c2ccccc12" , which is 18

Lab note: OC1(c2ccccc2)CSC2=Nc3ccccc3C3CCN1N23 (stereo not given) gave growth inhibition of 40

For record "[N-]=[N+]=NC1=C(c2ccccn2)C(=O)c2cccc3cccc1c23" the listed growth inhibition is 31

Summary for this molecule, CC(C)C1=CCC2C(=C1)CCC1C(C)(C(=O)O)CCCC21C (stereo not given) (tested in a mixture with another compound) : growth inhibition is 98

Please fill in: growth inhibition reported for "O=[N+]([O-])c1ccc(=S)[nH]c1" = 55

growth inhibition in this record for O=C1C2C=CC1C1C(=O)OC(=O)C21 (stereo not given) : 25

Entry under test: "Cn1c(=O)c2ccccc2c2ccccc21" . Its growth inhibition was -6

"CC(C)(C)c1nc2c(o1)C(=O)c1ccccc1C2=O" yielded growth inhibition of 42

Data point: "O=C(Nc1ccccc1)OCCc1ccc(Cl)c(Cl)c1" ; growth inhibition = 85

// growth inhibition value for COc1cc2c(c(OC)c1OC)-c1c(cc3c(c1OC)OCO3)CC(C)C(C)(O)C2OC(=O)c1ccccc1 (stereo not given) : 68

Recorded growth inhibition (molecule "S=C(N/N=C(/c1ccccc1)c1ccccn1)N1CCCCCC1" ): 96

Sure, the documented growth inhibition for "CSC(=S)N/N=C(\C)c1cccc(C)n1" is 98

The molecule listed as "O=Nc1c(NO)ccc2nn(-c3ccccc3)nc12" has a reported growth inhibition of 99

Record summary for CC(=O)OCC(=O)C1(O)CCC2C3CCC4CCCCC4(C)C3CCC21C (stereo not given) : reported growth inhibition = 75

Per the record, "CC(C)[N+]([O-])(CCCNc1c2ccccc2nc2cccc([N+](=O)[O-])c12)C(C)C" has growth inhibition of 99

Reported growth inhibition for "CN(C)c1ccc(C(C#N)=C(C#N)C#N)cc1" was 6

Recorded growth inhibition (molecule "CNC(=O)OCc1c(COC(=O)NC)c(-c2ccc(Cl)c(Cl)c2)n2c1CCC2" ): 99

Documented growth inhibition of "COc1cc2c3c(cccc3c1)C(=O)N(CCN(C)C)C2=O" : 3

// "Cn1c2ccccc2c(=O)c2cc(NC(=O)CCCCC(=O)Nc3ccc4c(c3)c(=O)c3ccccc3n4C)ccc21" : growth inhibition value = 5

Item: FC(F)(F)c1cc(NC(=S)N2c3ccccc3-n3cccc3C2c2cccnc2)cc(C(F)(F)F)c1 (stereo not given) | growth inhibition: 21

====

- experiment.description: NCI Yeast Anticancer Drug Screen. Data for the bub3 strain (AID 167)
- details: S. cerevisiae bub3 mutant strain, at 3.7 µM, stronger effect = higher value
Compounds without any hit were thinned out: in the full panel of roughly 79,000, 15% have a hit.
Assign growth inhibition to each entry below.
Kindly provide the numeric value in % only, without the unit symbol.

molecule "COc1ccc(N=C2C(=O)Nc3ccc(Br)cc32)cc1" , growth inhibition observed: -7

The value of growth inhibition measured for the molecule C(CCSC1=NCCN1)CSC1=NCCN1 (tested in a mixture with another compound) turned out to be 12

The molecule identified as "O=C1C=CC(=C(c2ccccc2)c2ccccc2)c2ccccc21" registered its growth inhibition at 1

COC(=O)C1=C(C)NC(C)=C(C(=O)OCCCN2CCC(c3ccccc3)(c3ccccc3)CC2)C1c1cccc([N+](=O)[O-])c1 (stereo not drawn) has a reported growth inhibition of 16

Recorded growth inhibition (molecule "COc1ccc2ccc3ccccc3c2c1C=O" ): 0

The molecule identified as O=[N+]([O-])c1ccc2c(c1)C(N1CCN(CCO)CC1)Cc1ccc(F)cc1S2 (stereo not drawn) registered its growth inhibition at -4

For this molecule ( "Oc1ccc2ccccc2c1C(c1ccc(Cl)cc1)c1c(O)ccc2ccccc12" ), measured growth inhibition is -15

Summary for this molecule, "CC1=C(SCCO)C(=O)c2ccccc2C1=O" : growth inhibition is -1

Sample "CN(C)c1ccc(C(C#N)=C(C#N)C#N)cc1" ; growth inhibition observed: -5

Input CC(/C=C/c1ccc2c(c1)OCO2)[N+](=O)[O-] (stereo not drawn) . Output growth inhibition: 69

Sample COc1cc(C2SCC(=O)N2c2ccc(-c3ccc(-n4c(-c5ccccc5)nc5ccccc5c4=O)cc3)cc2)cc(OC)c1OC (stereo not drawn) ; growth inhibition observed: 4

"Nc1nc(Cl)c(Cl)c(Cl)n1" has a reported growth inhibition of 1

Quick note, growth inhibition for "CN(C)c1ccc(Sc2ccc3nc(N)nc(N)c3c2)cc1" landed at -11

// recorded growth inhibition for "C/C(=N\NC(=S)SCc1ccccc1)c1ccccn1" : 20

Quick note, growth inhibition for "CCCCCCCCCCC(=O)Cl" landed at -4

# molecule O=C1OC(CCl)CN1/N=C/c1ccc([N+](=O)[O-])o1 (stereo not drawn) ; its growth inhibition = -4

Form: molecule = "N#CN=Nc1cc(Cl)c(N=NC#N)cc1Cl" ; growth inhibition = 2

Entry "O=CC=C(c1ccccc1)c1ccccc1" — recorded growth inhibition = -13
